Tested on: Pseudomonas aeruginosa PA01
method: Serum MIC, broth micro-dilution
Format: cell-based
experimental.parameters: Pseudomonas aeruginosa, PA01; 50% v/v mouse serum in Mueller Hinton II cation adjusted Broth, 35° C., 22 hours; Table 4; read-out: P. aeruginosa 01 Serum MIC
reported.property: MIC (µM)
Give the quantity in µM, number only.

Worked examples, 2 compounds total:
smiles.representation	study.target	measured.result
CCCCc1ccc(-c2nc(C)c(C(=O)N[C@@H](CNS(N)(=O)=O)C(=O)N(C)[C@@H]3C(=O)N[C@@H](C)C(=O)N[C@H](C(=O)O)Cc4ccc(OC[C@H](O)CN)c(c4)-c4cc3cc(OC[C@H](O)CN)c4O)c(N)n2)cc1	Pseudomonas aeruginosa PA01	16
C[C@@H]1NC(=O)[C@@H](N(C)C(=O)[C@H](CNS(N)(=O)=O)NC(=O)c2cnc(-c3ccc(C(C)(C)C)cc3)nc2)c2cc(OC[C@H](O)CN)c(O)c(c2)-c2cc(ccc2OC[C@H](O)CN)C[C@@H](C(=O)O)NC1=O	Pseudomonas aeruginosa PA01	8

Task: Quote MIC reported for Cc1nc(-c2ccc(C3(C)CC3)cc2)ncc1C(=O)N[C@@H](CCN)C(=O)N(C)[C@@H]1C(=O)N[C@@H](C)C(=O)N[C@H](C(=O)O)Cc2ccc(OC[C@H](O)CN)c(c2)-c2cc1cc(OC[C@H](O)CN)c2O please.
Output: 43

Task: Quote MIC reported for COc1c(OC[C@H](O)CN)cc2cc1-c1cc(ccc1OC[C@H](O)CN)C[C@@H](C(=O)O)NC(=O)[C@H](C)NC(=O)[C@H]2N(C)C(=O)[C@H](CCN)NC(=O)c1cnc(-c2ccc(C3(C)CC3)cc2)nc1C please.
Output: 64

Task: Quote MIC reported for Cc1nc(-c2cc3c(cc2O)C(C)(C)CC3)nc(N)c1C(=O)N[C@@H](CNS(N)(=O)=O)C(=O)N(C)[C@@H]1C(=O)N[C@@H](C)C(=O)N[C@H](C(=O)O)Cc2ccc(OC[C@H](O)CN)c(c2)-c2cc1cc(OC[C@H](O)CN)c2O please.
Output: 8
